# assayed-target: Bcl-xL (Homo sapiens, UniProt Q07817)
# Construct: Measured levels of Bcl-xL protein of HCT116 cells treated with the tested compounds; host or cells: HCT116
# Sequence (Q07817 whole entry): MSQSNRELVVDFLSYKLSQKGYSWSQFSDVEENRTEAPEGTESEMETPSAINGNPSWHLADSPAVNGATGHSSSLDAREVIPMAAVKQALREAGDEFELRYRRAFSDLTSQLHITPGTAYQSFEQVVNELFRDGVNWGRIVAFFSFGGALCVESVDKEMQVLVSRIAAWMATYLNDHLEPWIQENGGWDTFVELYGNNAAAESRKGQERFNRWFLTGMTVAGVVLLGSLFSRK
# measurement-notes: HCT116 Bcl-xL degradation, capillary-based immunoassay (WES)
# Format: cell-based
# experimental-conditions: HCT116, 24 h, 9-point serial dilution
property-name: DC50

| smiles-record | assayed-target | property-name | result |
| --- | --- | --- | --- |
| Cc1ncsc1-c1ccc([C@H](C)NC(=O)[C@@H]2C[C@@H](O)CN2C(=O)[C@@H](NC(=O)CCCCCCCCCCNC(=O)c2nc(N3CCCc4c3nnc(Nc3nc5ccccc5s3)c4C)ccc2-c2cnn(CC34CC5(C)CC(C)(C3)CC(OCCN3CCCC3)(C5)C4)c2C)C(C)(C)C)cc1 | Bcl-xL (Homo sapiens, UniProt Q07817) | DC50 | 0.487 nM |

Here is the next item to consider.
For Cc1ncsc1-c1ccc([C@H](C)NC(=O)[C@@H]2C[C@@H](O)CN2C(=O)[C@@H](NC(=O)CCCCCCCCCCCCCN(C)CCOC23CC4(C)CC(C)(CC(Cn5ncc(-c6ccc(N7CCCc8c7nnc(Nc7nc9ccccc9s7)c8C)nc6C(=O)NC(C)C)c5C)(C4)C2)C3)C(C)(C)C)cc1 on Bcl-xL (Homo sapiens, UniProt Q07817), measured DC50 was 18.8 nM

###

# assayed-target: HiBiT-tagged BCL-xL (Homo sapiens)
# Construct: expressed in transfected cells; host or cells: NCI-H1650 (ATCC No. CRL-5883), engineered HiBiT cell line
# measurement-notes: NCI-H1650 BCL-xL protein levels, Nano-Glo HiBiT Lytic Detection
# Assay type: cell-based
# experimental-conditions: NCI-H1650 expressing HiBiT-tagged BCL-xL, overnight incubation, read-out: Bcl-xl HIBIT NCIH1650 DC50
property-name: DC50

Please review the entries below; each comes with its answer.
| compound | assayed-target | DC50 |
| --- | --- | --- |
| Cc1ncsc1-c1ccc([C@H](C)NC(=O)[C@@H]2C[C@@H](O)CN2C(=O)[C@@H](NC(=O)CCOCCN(C)CCOC23CC4(C)CC(C)(CC(Cn5ncc(-c6ccc(N7CCCc8c7nnc(Nc7nc9ccccc9s7)c8C)nc6C(=O)O)c5C)(C4)C2)C3)C(C)(C)C)cc1 [Example 103] | HiBiT-tagged BCL-xL (Homo sapiens) | > 1670 nM |
| Cc1ncsc1-c1ccc(CNC(=O)[C@@H]2C[C@@H](O)CN2C(=O)[C@@H](NC(=O)C2(F)CC2)C(C)(C)C)c(OCCCCCCCCCCCCCCN(C)CCOC23CC4(C)CC(C)(CC(Cn5ncc(-c6ccc(N7CCCc8c7nnc(Nc7nc9ccccc9s7)c8C)nc6C(=O)O)c5C)(C4)C2)C3)c1 [Example 146] | HiBiT-tagged BCL-xL (Homo sapiens) | > 1670 nM |
| Cc1ncsc1-c1ccc([C@H](C)NC(=O)[C@@H]2C[C@@H](O)CN2C(=O)[C@@H](NC(=O)CCCCCCCCCN2CCN(CC#Cc3ccc(OCCCc4sc(N5CCCc6c5nnc(Nc5nc7ccccc7s5)c6C)nc4C(=O)O)c(F)c3)CC2)C(C)(C)C)cc1 [Example 134] | HiBiT-tagged BCL-xL (Homo sapiens) | 1 nM |

Here is the next item to consider.
Query Cc1ncsc1-c1ccc([C@H](C)NC(=O)[C@@H]2C[C@@H](O)CN2C(=O)[C@@H](NC(=O)C2CCN(C(=O)CCCCCCCCCCN(C)CCOC34CC5(C)CC(C)(CC(Cn6ncc(-c7ccc(N8CCCc9c8nnc(Nc8nc%10ccccc%10s8)c9C)nc7C(=O)O)c6C)(C5)C3)C4)CC2)C(C)(C)C)cc1 [Example 82] yields DC50 of > 1670 nM

###

# assayed-target: HiBiT-tagged BCL-xL (Homo sapiens)
# Construct: expressed in transfected cells; host or cells: NCI-H1650 (ATCC No. CRL-5883), engineered HiBiT cell line
# measurement-notes: NCI-H1650 BCL-xL protein levels, Nano-Glo HiBiT Lytic Detection
# Type: cell-based
# experimental-conditions: NCI-H1650 expressing HiBiT-tagged BCL-xL, overnight incubation, read-out: Bcl-xl HIBIT NCIH1650 DC50
Recorded DC50 values for a group of molecules are listed next.

| smiles-record | assayed-target | result |
| --- | --- | --- |
| Cc1ncsc1-c1ccc(CNC(=O)[C@@H]2C[C@@H](O)CN2C(=O)[C@@H](NC(=O)CCCCC(=O)N2CCN(CC#Cc3ccc(OCCCc4sc(N5CCCc6c5nnc(Nc5nc7ccccc7s5)c6C)nc4C(=O)O)c(F)c3)CC2)C(C)(C)C)cc1 | HiBiT-tagged BCL-xL (Homo sapiens) | > 1.67 µM |
| Cc1ncsc1-c1ccc(CNC(=O)[C@@H]2C[C@@H](O)CN2C(=O)[C@@H](NC(=O)C2(F)CC2)C(C)(C)SCCCCCCCCCCCCN(C)CCOC23CC4(C)CC(C)(CC(Cn5ncc(-c6ccc(N7CCCc8c7nnc(Nc7nc9ccccc9s7)c8C)nc6C(=O)O)c5C)(C4)C2)C3)cc1 | HiBiT-tagged BCL-xL (Homo sapiens) | > 1.67 µM |

Here is the next item to consider.
Query Cc1ncsc1-c1ccc([C@H](C)NC(=O)[C@@H]2C[C@@H](O)CN2C(=O)[C@@H](NC(=O)C2CCN(C(=O)CCCCCCCCCCCN(C)CCOC34CC5(C)CC(C)(CC(Cn6ncc(-c7ccc(N8CCCc9c8nnc(Nc8nc%10ccccc%10s8)c9C)nc7C(=O)O)c6C)(C5)C3)C4)CC2)C(C)(C)C)cc1 yields DC50 of > 1.67 µM

###

Recorded DC50 values for a group of molecules are listed next.
# assayed-target: Bcl-xL (Homo sapiens)
# Construct: Measured levels of Bcl-xL protein of HCT116 cells treated with the tested compounds; host or cells: HCT116
# measurement-notes: HCT116 Bcl-xL degradation, capillary-based immunoassay (WES)
# Type: cell-based
# experimental-conditions: HCT116, 24 h, 9-point serial dilution

| molecule | assayed-target | result |
| --- | --- | --- |
| CN[C@@H](C)C(=O)N[C@H](C(=O)N1CCC[C@H]1c1nc(C(=O)c2cccc(OCCCCCCCCCCCCN(C)CCOC34CC5(C)CC(C)(CC(Cn6ncc(-c7ccc(N8CCCc9c8nnc(Nc8nc%10ccccc%10s8)c9C)nc7C(=O)O)c6C)(C5)C3)C4)c2)cs1)C1CCCCC1 | Bcl-xL (Homo sapiens) | > 316 nM |
| Cc1ncsc1-c1ccc(CNC(=O)C2C[C@@H](O)CN2C(=O)C(NC(=O)CCCCCC(=O)N2CCN(CCOC34CC5(C)CC(C)(CC(Cn6ncc(-c7ccc(N8CCCc9c8nnc(Nc8nc%10ccccc%10s8)c9C)nc7C(=O)O)c6C)(C5)C3)C4)CC2)C(C)(C)C)cc1 (stereo in doubt) | Bcl-xL (Homo sapiens) | > 316 nM |

Here is the next item to consider.
Query Cc1c(Nc2nc3ccccc3s2)nnc2c1CCCN2c1ccc(-c2cnn(CC34CC5(C)CC(C)(C3)CC(OCCN(C)CCCCCC(=O)N3CCC(c6ccc7c(c6)CN(C6CCC(=O)NC6=O)C7=O)CC3)(C5)C4)c2C)c(C(=O)O)n1 (stereo not drawn) yields DC50 of > 316 nM

###

Recorded pIC50 values for a group of compounds are listed next.
# System: MOLT-4 cells
# measurement-notes: MOLT-4 cell viability, MTT assay
# Type: cell-based
# experimental-conditions: Homo sapiens, MOLT-4, 48 h
Field pIC50 (float): negative decimal logarithm of the concentration in molar.

Please review the entries below; each comes with its answer.
| compound | pIC50 |
| --- | --- |
| Cc1ncsc1-c1ccc(CNC(=O)[C@@H]2C[C@@H](O)CN2C(=O)[C@@H](NC(=O)CCCCC(=O)N2CCN(CC#Cc3ccc(OCCCc4sc(N5CCCc6c5nnc(Nc5nc7ccccc7s5)c6C)nc4C(=O)O)c(F)c3)CC2)C(C)(C)C)cc1 | 7.88 |
| Cc1ncsc1-c1ccc(CNC(=O)C2C[C@@H](O)CN2C(=O)C(NC(=O)CCCCCC(=O)N2CCN(CCOC34CC5(C)CC(C)(CC(Cn6ncc(-c7ccc(N8CCCc9c8nnc(Nc8nc%10ccccc%10s8)c9C)nc7C(=O)O)c6C)(C5)C3)C4)CC2)C(C)(C)C)cc1 (stereo in doubt) | 8.33 |
| Cc1c(Nc2nc3ccccc3s2)nnc2c1CCCN2c1ccc(-c2cnn(CC34CC5(C)CC(C)(C3)CC(OCCN(C)CCOCCOCCOCCNc3cccc6c3C(=O)N(C3CCC(=O)NC3=O)C6=O)(C5)C4)c2C)c(C(=O)O)n1 (centres unmarked) | 8.37 |
| Cc1ncsc1-c1ccc(CNC(=O)[C@@H]2C[C@@H](O)CN2C(=O)[C@@H](NC(=O)C2(F)CC2)C(C)(C)C)c(OCCCCCCCCCCCCN(C)CCOC23CC4(C)CC(C)(CC(Cn5ncc(-c6ccc(N7CCCc8c7nnc(Nc7nc9ccccc9s7)c8C)nc6C(=O)O)c5C)(C4)C2)C3)c1 | 8.45 |

Query Cc1ncsc1-c1ccc(CNC(=O)[C@@H]2C[C@@H](O)CN2C(=O)[C@@H](NC(=O)CCCC(=O)N2CCN(CC#Cc3ccc(OCCCc4sc(N5CCCc6c5nnc(Nc5nc7ccccc7s5)c6C)nc4C(=O)O)c(F)c3)CC2)C(C)(C)C)cc1 yields pIC50 of 8.57

Query Cc1ncsc1-c1ccc(CNC(=O)[C@@H]2CC(O)CN2C(=O)C(NC(=O)CCCCCCC(=O)N2CCN(CCOC34CC5(C)CC(C)(CC(Cn6ncc(-c7ccc(N8CCCc9c8nnc(Nc8nc%10ccccc%10s8)c9C)nc7C(=O)O)c6C)(C5)C3)C4)CC2)C(C)(C)C)cc1 (stereo in doubt) yields pIC50 of 8.58

Query Cc1ncsc1-c1ccc(CNC(=O)[C@@H]2C[C@@H](O)CN2C(=O)[C@@H](NC(=O)C2(F)CC2)C(C)(C)C)c(OCCCCCCN(C)CCOC23CC4(C)CC(C)(CC(Cn5ncc(-c6ccc(N7CCCc8c7nnc(Nc7nc9ccccc9s7)c8C)nc6C(=O)O)c5C)(C4)C2)C3)c1 yields pIC50 of 7.79

Query Cc1ncsc1-c1ccc([C@H](C)NC(=O)[C@@H]2CC(O)CN2C(=O)[C@@H](NC(=O)CCCCCCCCCCCCCCN(C)CCOC23CC4(C)CC(C)(CC(Cn5ncc(-c6ccc(N7CCCc8c7nnc(Nc7nc9ccccc9s7)c8C)nc6C(=O)O)c5C)(C4)C2)C3)C(C)(C)C)cc1 (stereo in doubt) yields pIC50 of 9.31
